- System: CD44+ CD4+ T cells
- assay-text: ICS, ZIKV SD001-infected Ifnar1-/- HLA-DRB1*0101 mice
- Type: cell-based, mouse
- assay-setup: ZIKV SD001, day 7
assay-endpoint: cytokines produced by ZIKV-primed CD4+ T cells on peptide stimulation

>  <seq>
FLRFTAIKPSLGLIN [C53-67]

>  <assay-target>
CD44+ CD4+ T cells

>  <result>
produce only IFNγ

$$$$
>  <seq>
IKKFKKDLAAMLRII [C81-95]

>  <assay-target>
CD44+ CD4+ T cells

>  <result>
produce only IFNγ

$$$$

* * *

- Tested on: CD8+ T cells
- assay-text: IFNγ ELISPOT, DENV2 S221-infected Ifnar-/- HLA-B*0702 transgenic mice
- Type: cell-based, mouse
- assay-setup: HLA-B*0702 mice, 7 days after 2×10^4 FFU DENV2 S221

>  <seq>
KPTVDIEL [FSS/MR-E38-45]

>  <unit-of-measurement>
SFC/10^6 CD8+ T cells

>  <SFC/10^6 CD8+ T cells, S221>
51

$$$$
>  <seq>
SPNKYVVNSSTA [FSS/MR-NS4B210-220]

>  <unit-of-measurement>
SFC/10^6 CD8+ T cells

>  <SFC/10^6 CD8+ T cells, S221>
49

$$$$
>  <seq>
VVMILGGFSM [MR-NS2A31-40]

>  <unit-of-measurement>
SFC/10^6 CD8+ T cells

>  <SFC/10^6 CD8+ T cells, S221>
51

$$$$
>  <seq>
RPGAFCIKVL [FSS/MR-NS4B426-435]

>  <unit-of-measurement>
SFC/10^6 CD8+ T cells

>  <SFC/10^6 CD8+ T cells, S221>
90

$$$$
>  <seq>
LPEIVREAI [FSS/MR-NS3188-196]

>  <unit-of-measurement>
SFC/10^6 CD8+ T cells

>  <SFC/10^6 CD8+ T cells, S221>
63

$$$$
>  <seq>
KPRWMDARV [FSS/MR-NS3574-582]

>  <unit-of-measurement>
SFC/10^6 CD8+ T cells

>  <SFC/10^6 CD8+ T cells, S221>
350

$$$$
>  <seq>
RVCSDHAAL [FSS/MR-NS3581-589]

>  <unit-of-measurement>
SFC/10^6 CD8+ T cells

>  <SFC/10^6 CD8+ T cells, S221>
44

$$$$
>  <seq>
RPALLVSFIF [FSS/MR-NS2A75-84]

>  <unit-of-measurement>
SFC/10^6 CD8+ T cells

>  <SFC/10^6 CD8+ T cells, S221>
88

$$$$

These measurements were taken from patent US11806393B2.
